tested-system: T1, dog serum albumin (dog, UniProt P49822 25-608)
T1 construct: bought protein, amine-coupled to a CM5 chip; also called Dog SA
protocol-notes: SPR (Biacore 8K), albumin immobilised, 25 C, 1:1 kinetics
parameter-measured: Kd (nM)
Answer with a number only, understood to be in nM.

### Prompt Param item = INS Analog 25 (other, single-chain insulin B-L2-A-L1-VHH fusion; also called Ex. 25) FVSQHLCGSHLVEALRLVCGERGFFYTPKTGGGGGGGIVEQCCTSICSLYQLENYCGGGGGQGGGGQGGGGQGGGGQGGGGQEVQLLESGGGLVQPGGSLRLSCAASGRYIDETAVAWFRQAPGKEREFVAGIGGGVDITYYADSVKGRFTISRDNSKNTLYLQMNSLRPEDTAVYYCAARPGRPLITSKVADLYPYWGQGTLVTVSSPP ; retrieve measured Kd.
### Response 16
